# TGT: hFASN enzyme (full length) (Homo sapiens)
# Construct: 10 μL hFASN enzyme (full length, 300 ng, purified in house); made in house
# Sequence (P49327 whole entry): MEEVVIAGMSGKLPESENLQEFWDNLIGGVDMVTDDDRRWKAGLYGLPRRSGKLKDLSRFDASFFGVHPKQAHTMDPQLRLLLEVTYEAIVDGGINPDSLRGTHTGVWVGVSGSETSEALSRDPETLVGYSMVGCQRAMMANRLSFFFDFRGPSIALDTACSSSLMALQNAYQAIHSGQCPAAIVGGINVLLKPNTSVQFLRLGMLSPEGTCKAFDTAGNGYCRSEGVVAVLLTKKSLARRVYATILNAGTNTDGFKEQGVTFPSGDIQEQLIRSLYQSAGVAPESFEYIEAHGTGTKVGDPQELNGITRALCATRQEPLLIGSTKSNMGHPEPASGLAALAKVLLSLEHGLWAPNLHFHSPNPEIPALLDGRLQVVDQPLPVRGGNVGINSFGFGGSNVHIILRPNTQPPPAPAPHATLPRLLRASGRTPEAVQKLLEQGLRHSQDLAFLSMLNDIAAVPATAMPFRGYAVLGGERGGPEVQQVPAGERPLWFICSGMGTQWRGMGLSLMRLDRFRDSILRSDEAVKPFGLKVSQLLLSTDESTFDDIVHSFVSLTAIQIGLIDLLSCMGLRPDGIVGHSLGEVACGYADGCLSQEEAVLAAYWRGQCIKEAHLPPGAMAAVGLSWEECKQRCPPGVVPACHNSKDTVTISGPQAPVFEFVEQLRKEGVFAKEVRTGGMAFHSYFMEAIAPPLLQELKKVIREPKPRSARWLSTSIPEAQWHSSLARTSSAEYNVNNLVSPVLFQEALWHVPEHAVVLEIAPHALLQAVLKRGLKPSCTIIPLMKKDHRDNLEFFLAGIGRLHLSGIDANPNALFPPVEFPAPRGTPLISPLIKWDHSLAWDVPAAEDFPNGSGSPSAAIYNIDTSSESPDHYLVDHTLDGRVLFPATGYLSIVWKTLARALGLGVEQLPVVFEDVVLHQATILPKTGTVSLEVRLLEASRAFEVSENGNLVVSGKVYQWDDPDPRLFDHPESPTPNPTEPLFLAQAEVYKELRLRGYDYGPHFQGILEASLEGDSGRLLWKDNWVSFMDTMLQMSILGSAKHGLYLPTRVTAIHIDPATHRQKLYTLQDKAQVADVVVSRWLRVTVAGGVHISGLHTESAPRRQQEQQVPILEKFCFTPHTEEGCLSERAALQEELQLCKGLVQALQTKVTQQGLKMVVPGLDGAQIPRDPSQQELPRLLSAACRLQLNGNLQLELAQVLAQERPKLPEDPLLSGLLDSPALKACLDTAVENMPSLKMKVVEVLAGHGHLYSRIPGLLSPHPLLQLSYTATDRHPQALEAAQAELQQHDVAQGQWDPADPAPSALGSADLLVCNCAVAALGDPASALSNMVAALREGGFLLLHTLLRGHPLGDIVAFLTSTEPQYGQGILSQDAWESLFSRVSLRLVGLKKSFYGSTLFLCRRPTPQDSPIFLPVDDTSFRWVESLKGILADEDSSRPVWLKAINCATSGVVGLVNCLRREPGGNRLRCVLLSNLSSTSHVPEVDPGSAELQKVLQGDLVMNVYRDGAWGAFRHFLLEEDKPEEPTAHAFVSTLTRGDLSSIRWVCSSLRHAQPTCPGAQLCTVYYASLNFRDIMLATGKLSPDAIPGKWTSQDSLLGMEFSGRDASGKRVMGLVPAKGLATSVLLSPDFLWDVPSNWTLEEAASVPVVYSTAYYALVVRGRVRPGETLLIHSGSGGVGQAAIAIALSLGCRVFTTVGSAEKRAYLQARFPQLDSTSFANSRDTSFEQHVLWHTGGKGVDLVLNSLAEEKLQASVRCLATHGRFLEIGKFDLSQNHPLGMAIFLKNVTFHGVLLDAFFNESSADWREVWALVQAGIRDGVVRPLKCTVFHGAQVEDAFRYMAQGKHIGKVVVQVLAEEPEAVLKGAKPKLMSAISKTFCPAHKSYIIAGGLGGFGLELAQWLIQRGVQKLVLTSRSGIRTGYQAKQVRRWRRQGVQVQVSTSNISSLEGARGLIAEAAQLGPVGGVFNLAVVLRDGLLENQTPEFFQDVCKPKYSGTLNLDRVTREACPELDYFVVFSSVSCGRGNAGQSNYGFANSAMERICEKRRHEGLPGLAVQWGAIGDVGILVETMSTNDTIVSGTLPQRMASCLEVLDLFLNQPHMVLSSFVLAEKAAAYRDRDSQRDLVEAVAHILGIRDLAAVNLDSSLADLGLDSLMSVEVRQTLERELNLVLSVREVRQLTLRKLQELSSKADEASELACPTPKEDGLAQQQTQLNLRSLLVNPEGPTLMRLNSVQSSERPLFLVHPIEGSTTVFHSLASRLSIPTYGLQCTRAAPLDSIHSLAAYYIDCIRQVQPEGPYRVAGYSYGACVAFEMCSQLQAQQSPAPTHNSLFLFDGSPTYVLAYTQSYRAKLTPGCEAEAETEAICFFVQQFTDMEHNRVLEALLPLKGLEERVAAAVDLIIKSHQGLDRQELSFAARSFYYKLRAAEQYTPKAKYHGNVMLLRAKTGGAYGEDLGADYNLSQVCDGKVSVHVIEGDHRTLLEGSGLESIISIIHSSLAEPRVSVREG
# TEST_DESCRIPTION: Fatty Acid Synthase (FASN) inhibition scintillation proximity assay
# Type: biochemical
# TEST_PARAMETERS: read-out: Human FASN pIC50 (converted)
REPORTED_ENDPOINT: IC50 (nM)

- COMPOUND_STRING: "O=C1Cc2cc(-c3ccc(C4=NC5(CC5)C(=O)N4C[C@@H]4CCN(C(=O)C5CC5)C4)cc3)ccc2N1"
  UNIT_OF_MEASUREMENT: "nM"
  IC50: 457

1 = Cc1cc(-c2ccc(Cl)cc2Cl)ccc1C1=NC2(CCCC2)C(=O)N1C[C@@H]1CCN(C(=O)C2CC2)C1
2 = O=C(C1CC1)N1CC[C@@H](CN2C(=O)C3(CC3)N=C2c2ncc(-c3ccc4occc4c3)cn2)C1
Quick one: lower IC50, 1 or 2 ? Write the label of whichever entry you select.
1
(1: 145 nM, 2: 2750 nM)
